Target: UniProt P01116
Sequence (P01116 whole entry): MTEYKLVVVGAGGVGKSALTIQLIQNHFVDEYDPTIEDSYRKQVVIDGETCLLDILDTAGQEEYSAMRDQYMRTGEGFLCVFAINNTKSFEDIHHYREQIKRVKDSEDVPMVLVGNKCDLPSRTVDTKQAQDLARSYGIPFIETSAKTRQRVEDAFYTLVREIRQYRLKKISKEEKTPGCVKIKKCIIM
Experiment: Binding to KRAS by surface plasmon resonance (SPR), Single Cycle Kinetics
Conditions: SPR Single Cycle Kinetics, GDP-bound KRAS wild-type protein, 1:1 binding model; read-out: KRAS KD
pKd: −log10 of the molar value. *1 amine or outer side, *2 acyl side, *3 side chain or, on linkers, in order; H or OH if unused. Where a SMILES comes first, the peptide text is derived from it. Bridges are numbered along the chain shown (N, C = ends). [ ]: non-standard residue; d: D form. The star is where a group is joined. hPhe(3,5-F2-4-CF3) = N[C@@H](CCc1cc(F)c(C(F)(F)F)c(F)c1)C(=O)O; hPhe(3-Cl-4-CF3) = N[C@@H](CCc1ccc(C(F)(F)F)c(Cl)c1)C(=O)O; NPrPhe(4-CF3) = CCCN[C@@H](Cc1ccc(C(F)(F)F)cc1)C(=O)O; NMeAbu(4,4,4-F3) = CN[C@@H](CC(F)(F)F)C(=O)O; X13 = O=C([C@@H](N[*:1])C1CC(F)(F)C1)[*:2]; NMeGly(cPent) = CN[C@H](C(=O)O)C1CCCC1; Hyp = O=C(O)[C@@H]1C[C@@H](O)CN1; NMeD = CN[C@@H](CC(=O)O)C(=O)O; NMeL = CN[C@@H](CC(C)C)C(=O)O; αMeV = CC(C)[C@](C)(N)C(=O)O; Morpholide = C1CN(*)CCO1; Ac5c = NC1(C(=O)O)CCCC1; Sar = CNCC(=O)O
experimental endpoint: pKd

[[record]]
molecule = "CC[C@H](C)[C@@H]1NC(=O)[C@H](CC(C)C)N(C)C(=O)C[C@@H](C(=O)N2CCOCC2)N(C)C(=O)[C@H](C2CCCC2)N(C)C(=O)C2(CCOCC2)NC(=O)[C@@H]2CCCN2C(=O)[C@H](CCc2cc(F)c(C(F)(F)F)c(F)c2)NC(=O)CN(C)C(=O)[C@H](Cc2ccc(C(F)(F)F)cc2)N2CCCCC[C@@H](C2=O)N(C)C(=O)CN(C)C1=O [PP0502]"
experimental_target = "UniProt P01116"
experimental_endpoint = "pKd"
test_value = 7.92

[[record]]
molecule = "CCCN1C(=O)CN(C)C(=O)CN(C)C(=O)[C@H]([C@@H](C)CC)NC(=O)[C@H](CC(C)C)N(C)C(=O)C[C@@H](C(=O)N2CCOCC2)N(C)C(=O)[C@H](CC(F)(F)F)N(C)C(=O)C2(CCCC2)NC(=O)[C@@H]2CCCN2C(=O)[C@H](CCc2cc(F)c(C(F)(F)F)c(F)c2)NC(=O)CN(C)C(=O)[C@@H]1Cc1ccc(C(F)(F)F)cc1 [PP0767] ([NMeL]I[Sar][Sar][NPrPhe(4-CF3)][Sar][hPhe(3,5-F2-4-CF3)]P[Ac5c][NMeAbu(4,4,4-F3)][NMeD]-Morpholide; lactam N-11)"
experimental_target = "UniProt P01116"
experimental_endpoint = "pKd"
test_value = 8.72

[[record]]
molecule = "CCC[C@H]1C(=O)N[C@@H]([C@@H](C)CC)C(=O)N(C)CC(=O)N(C)[C@H]2C/C=C\\CCN(C2=O)[C@@H](Cc2ccc(C(F)(F)F)cc2)C(=O)N(C)CC(=O)N[C@@H](CCc2ccc(CC)c(Cl)c2)C(=O)N2C[C@H](OCC)C[C@H]2C(=O)NC2(CC(C)(C)C2)C(=O)N(C)[C@@H](C2CCCC2)C(=O)N(C)[C@H](C(=O)N(C)C)CC(=O)N1C [PP2848]"
experimental_target = "UniProt P01116"
experimental_endpoint = "pKd"
test_value = 9.33

[[record]]
molecule = "CCCN1C(=O)CN(C)C(=O)CN(C)C(=O)[C@H](C2CC(F)(F)C2)NC(=O)[C@H](CC(C)C)N(C)C(=O)C[C@@H](C(=O)N2CCOCC2)N(C)C(=O)[C@H](C2CCCC2)N(C)C(=O)C2(CCCC2)NC(=O)[C@@H]2CCCN2C(=O)[C@H](CCc2cc(F)c(C(F)(F)F)c(F)c2)NC(=O)CN(C)C(=O)[C@@H]1Cc1ccc(C(F)(F)F)cc1 [PP0769] ([NMeL][X13][Sar][Sar][NPrPhe(4-CF3)][Sar][hPhe(3,5-F2-4-CF3)]P[Ac5c][NMeGly(cPent)][NMeD]-Morpholide; lactam N-11)"
experimental_target = "UniProt P01116"
experimental_endpoint = "pKd"
test_value = 9.68

[[record]]
molecule = "CCC(CC)[C@H]1C(=O)N(C)[C@H](C(=O)N(C)C)CC(=O)N(C)[C@@H](COC)C(=O)N[C@@H]([C@@H](C)CC)C(=O)N(C)CC(=O)N(C)[C@H]2C/C=C\\CCN(C2=O)[C@@H](Cc2ccc(C(F)(F)F)cc2)C(=O)N(C)CC(=O)N[C@@H](CCc2cc(F)c(C(F)(F)F)c(F)c2)C(=O)N2CCCC[C@H]2C(=O)NC2(CC(C)(C)C2)C(=O)N1C [PP2916]"
experimental_target = "UniProt P01116"
experimental_endpoint = "pKd"
test_value = 8.89

[[record]]
molecule = "CCC[C@H]1C(=O)N[C@@H](CC(C)C)C(=O)N2C[C@@H](OC)C[C@H]2C(=O)N(C)[C@H]2C/C=C\\CCN(C2=O)[C@@H](Cc2ccc(C)cc2)C(=O)N(C)CC(=O)N[C@@H](CCc2ccc(C(F)(F)F)c(Cl)c2)C(=O)N2C[C@H](OCC)C[C@H]2C(=O)NC2(CC(C)(C)C2)C(=O)N(C)[C@@H](C2CCCC2)C(=O)N(C)[C@H](C(=O)N(C)C)CC(=O)N1C [PP2555]"
experimental_target = "UniProt P01116"
experimental_endpoint = "pKd"
test_value = 8.39

[[record]]
molecule = "CCO[C@@H]1C[C@H]2C(=O)NC3(CC(C)(C)C3)C(=O)N(C)[C@@H](C3CCCC3)C(=O)N(C)[C@H](C(=O)N(C)CC)CC(=O)N(C)[C@@H](CC(C)C)C(=O)N[C@@H]([C@@H](C)CC)C(=O)N(C)CC(=O)N(C)[C@H]3C/C=C\\CCN(C3=O)[C@@H](Cc3ccc(C(F)F)cc3)C(=O)N(C)CC(=O)N[C@@H](CCc3ccc(C(F)(F)F)c(OC)c3)C(=O)N2C1 [PP2828]"
experimental_target = "UniProt P01116"
experimental_endpoint = "pKd"
test_value = 9.96

[[record]]
molecule = "CCOC[C@H]1C(=O)N[C@@H]([C@@H](C)CC)C(=O)N(C)CC(=O)N(C)[C@H]2C/C=C\\CCN(C2=O)[C@@H](Cc2ccc(C(F)(F)F)cc2)C(=O)N(C)CC(=O)N[C@@H](CCc2ccc(C(F)(F)F)c(OC)c2)C(=O)N2C[C@H](OCC)C[C@H]2C(=O)NC2(CC(C)(C)C2)C(=O)N(C)[C@@H](CC2CCC2)C(=O)N(C)[C@H](C(=O)N(C)C)CC(=O)N1C [PP2765]"
experimental_target = "UniProt P01116"
experimental_endpoint = "pKd"
test_value = 9.15

[[record]]
molecule = "CCCN1C(=O)CN(C)C(=O)CN(C)C(=O)[C@H]([C@@H](C)CC)NC(=O)[C@H](CC(C)C)N(C)C(=O)C[C@@H](C(=O)N(C)C)N(C)C(=O)[C@H](C2CCCC2)N(C)C(=O)C2(CCCC2)NC(=O)[C@@H]2C[C@@H](OCC)CN2C(=O)[C@H](CCc2ccc(C(F)(F)F)c(Cl)c2)NC(=O)CN(C)C(=O)[C@@H]1Cc1ccc(C(F)(F)F)cc1 [PP0415] ([NMeL]I[Sar][Sar][NPrPhe(4-CF3)][Sar][hPhe(3-Cl-4-CF3)][Hyp](Et)[Ac5c][NMeGly(cPent)][NMeD]-NMe2; lactam N-11)"
experimental_target = "UniProt P01116"
experimental_endpoint = "pKd"
test_value = 10.74

[[record]]
molecule = "CCCN1C(=O)CN(C)C(=O)CN(C)C(=O)[C@H]([C@@H](C)CC)NC(=O)[C@H](CC(C)C)N(C)C(=O)C[C@@H](C(=O)N(C)C)N(C)C(=O)[C@H](C2CCCC2)N(C)C(=O)[C@](C)(C(C)C)NC(=O)[C@@H]2CCCN2C(=O)[C@H](CCc2cc(F)c(C(F)(F)F)c(F)c2)NC(=O)CN(C)C(=O)[C@@H]1Cc1ccc(C(F)(F)F)cc1 [PP0735] ([NMeL]I[Sar][Sar][NPrPhe(4-CF3)][Sar][hPhe(3,5-F2-4-CF3)]P[αMeV][NMeGly(cPent)][NMeD]-NMe2; lactam N-11)"
experimental_target = "UniProt P01116"
experimental_endpoint = "pKd"
test_value = 9.57

